B1: library; a variant is named by its letters at N, in order (parent)
chain: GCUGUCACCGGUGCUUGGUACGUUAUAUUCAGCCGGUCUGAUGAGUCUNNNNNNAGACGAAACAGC

Variants of: B1
Test: normalized RNA/DNA level with ligand (relative to sTRSVctl = 100) (log10 (% of sTRSVctl)); HEK293T overexpressing SLC46A1; ligand concentration (+) RNA-Seq: 6 mM; higher = less ribozyme self-cleavage, higher mRNA level
Settings: with (6R,S)-folinic acid; ligand present: yes
test.readout: normalized RNA/DNA level with ligand (log10)
Number only, please.

entry.sequence	measured.number
GCUGUCACCGGUGCUUGGUACGUUAUAUUCAGCCGGUCUGAUGAGUCUGCUCGGAGACGAAACAGC [GCUCGG]	2.03
GCUGUCACCGGUGCUUGGUACGUUAUAUUCAGCCGGUCUGAUGAGUCUGUCCGGAGACGAAACAGC [GUCCGG]	2.05
GCUGUCACCGGUGCUUGGUACGUUAUAUUCAGCCGGUCUGAUGAGUCUCCCCCUAGACGAAACAGC [CCCCCU]	2.01
GCUGUCACCGGUGCUUGGUACGUUAUAUUCAGCCGGUCUGAUGAGUCUGUCUUCAGACGAAACAGC [GUCUUC]	2.03

Okay, now this variant:
Input line: Look up normalized RNA/DNA level with ligand (log10) of GCUGUCACCGGUGCUUGGUACGUUAUAUUCAGCCGGUCUGAUGAGUCUCGGGCUAGACGAAACAGC [CGGGCU] and report it.
Output line: 2.06
